This listing pairs binders with measured koff.
measurementTarget: T1, monkey IL-25 expressed with a C-terminal myc-myc-hexahistidine tag (M. fascicularis (cynomolgus monkey))
T1 construct: also called Monkey IL-25-MMH; MfIL-25-MMH
T1 chain: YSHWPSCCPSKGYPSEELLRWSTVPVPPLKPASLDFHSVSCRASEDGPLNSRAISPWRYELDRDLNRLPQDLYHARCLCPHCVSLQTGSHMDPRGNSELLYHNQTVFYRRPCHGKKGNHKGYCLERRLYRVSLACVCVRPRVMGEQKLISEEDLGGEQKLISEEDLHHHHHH
assayProtocol: SPR Biacore, antibody captured, 37C;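 further: biacore 4000 surface plasmon resonance biosensor measuring binding of IL-25-MMH to purified anti-IL-25 antibodies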
Express it in s⁻¹; write the number only.

binder	koff [s⁻¹]
H4H10901P (antibody, human IgG4, V domains shown, H4H prefix = human IgG4 Fc) VH: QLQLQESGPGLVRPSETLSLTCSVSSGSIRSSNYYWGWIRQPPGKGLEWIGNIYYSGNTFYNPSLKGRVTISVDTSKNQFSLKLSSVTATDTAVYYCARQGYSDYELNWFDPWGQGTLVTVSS VL: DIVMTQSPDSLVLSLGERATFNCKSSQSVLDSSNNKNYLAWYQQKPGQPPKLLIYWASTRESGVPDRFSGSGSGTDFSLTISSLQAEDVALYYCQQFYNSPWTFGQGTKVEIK	0.000165
H4H10863P (antibody, human IgG4, V domains shown, H4H prefix = human IgG4 Fc) VH: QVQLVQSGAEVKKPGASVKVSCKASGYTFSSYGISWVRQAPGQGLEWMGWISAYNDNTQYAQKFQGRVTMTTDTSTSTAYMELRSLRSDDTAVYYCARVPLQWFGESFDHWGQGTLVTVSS VL: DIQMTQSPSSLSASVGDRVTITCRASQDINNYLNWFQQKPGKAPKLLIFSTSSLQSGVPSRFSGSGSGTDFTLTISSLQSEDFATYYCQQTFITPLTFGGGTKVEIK	8.07e-05

Shifting focus to the binder that follows.
# koff of H4H10897P (antibody, human IgG4, V domains shown, H4H prefix = human IgG4 Fc) VH: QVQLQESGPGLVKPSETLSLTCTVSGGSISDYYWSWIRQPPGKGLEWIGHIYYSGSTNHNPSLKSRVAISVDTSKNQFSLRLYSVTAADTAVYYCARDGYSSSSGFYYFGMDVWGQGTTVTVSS VL: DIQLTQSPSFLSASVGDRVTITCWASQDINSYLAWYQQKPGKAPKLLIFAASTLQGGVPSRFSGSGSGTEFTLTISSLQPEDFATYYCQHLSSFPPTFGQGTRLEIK = 0.000231
